- Test system: TR146 cells
- Test: In vitro permeation, buccal model
- Assay type: in vitro ADME, human
- Study conditions: from CS-loaded OFs, 60 min
Marks after values point to notes of the source that are not given here.
List of Permeation (%) values.

INSERT INTO measurements (smiles_code, recorded_value) VALUES
  ('O=C(O)CCC(=O)O', '57.45 ± 0.78^b %'),
  ('O=C(O)C[C@H](C(=O)O)[C@@H](O)C(=O)O', '0.62 ± 0.02^a %'),
  ('O=C1CC[C@@H](C(=O)O)N1', '46.32 ± 2.65^a^,^b %'),
  ('O=C(O)c1ccc(O)c(O)c1', '94.08 ± 3.56^b %');

Exercise: Please list Permeation (%) recorded for the compound `COc1cc(-c2oc3cc(O)cc(O)c3c(=O)c2O)ccc1O`
Solution: 101.34 ± 2.95^a %

Exercise: Please list Permeation (%) recorded for the compound `COc1cc(CC(=O)O)ccc1O`
Solution: 103.62 ± 2.72^a %

====

- Test system: TR146 cells
- Test: In vitro permeation, buccal model
- Format: in vitro ADME, human
- Study conditions: from CS-loaded OFs, 30 min
- Procedure: The in vitro permeability of the bioactive compounds present in OFs (n = 9) was determined using a co-culture model composed of TR146 ([31]). The extract and the CS-loaded OFs were added to the apical side of the model as a stock solution. […] The Transepithelial Electrical Resistance (TEER) of the model was evaluated before, during, and at the end of the permeability assay using an EVOM Epithelial Volthometer equipped with a chopstick electrode (World Precision Instruments, Sarasota, FL, USA). […]
Marks after values point to notes of the source that are not given here.
List of Permeation (%) values.

Examples from the recorded data:
INSERT INTO assay_data (compound, parameter, recorded_value) VALUES
  ('COc1cc(-c2oc3cc(O)cc(O)c3c(=O)c2O)ccc1O [Isorhamnetin]', 'Permeation (%)', '105.51 ± 3.25^a %'),
  ('O=C1CC[C@@H](C(=O)O)N1 [Pyroglutamic acid]', 'Permeation (%)', '39.63 ± 0.24^a^,^b %'),
  ('O=C(O)CCC(=O)O [Succinic acid]', 'Permeation (%)', '64.44 ± 1.03^c %'),
  ('COc1cc(CC(=O)O)ccc1O [Homovanillic acid]', 'Permeation (%)', '104.89 ± 1.08^a %');

Continue with the next compound.
Exercise: Give Permeation (%); test system TR146 cells; compound O=C(O)C[C@H](C(=O)O)[C@@H](O)C(=O)O [Isocitric acid]
Solution: 0.29 ± 0.05^a %

====

- Test: Ex vivo permeation, Franz cells
- Assay type: in vitro ADME, porcine
- Study conditions: from CS-loaded OFs, 15 min
Marks after values point to notes of the source that are not given here.
Parameter: Permeation (%)

Examples from the recorded data:
INSERT INTO measurements (molecule, recorded_value) VALUES
  ('O=C(O)CCC(=O)O', '14.00 ± 0.63^a %'),
  ('O=C(O)c1cccc(O)c1 [3-Hydroxybenzoic acid]', '45.86 ± 0.03^b %'),
  ('O=C(O)CCCCC(=O)O', '98.93 ± 2.05^b %');

Exercise: Please list Permeation (%) recorded for the molecule `O=C(O)[C@]1(O)C[C@@H](O)[C@@H](O)[C@H](O)C1`
Solution: 70.71 ± 1.52^b %

Exercise: Please list Permeation (%) recorded for the molecule `O=C(O)C[C@H](C(=O)O)[C@@H](O)C(=O)O`
Solution: 19.05 ± 1.12^a %

Exercise: Please list Permeation (%) recorded for the molecule `O=C(O)CCCCCC(=O)O`
Solution: 76.61 ± 4.85^a %

Exercise: Please list Permeation (%) recorded for the molecule `O=c1oc2c(O)c(O)cc3c(=O)oc4c(O)c(O)cc1c4c23`
Solution: 35.46 ± 0.32^b %
